Taken from PubChem BioAssay (NCI).

Overview of recorded TGI for various molecules
- System: SNB-75 CNS
- protocol_details: NCI tumour cell line growth inhibition, 48 h

Below, each entry is followed by its recorded TGI result.
[
  {
    "molecule": "S=C(Nc1cccc(C2(N3CCCCC3)CCCCC2)c1)Nc1cccc(C2(N3CCCCC3)CCCCC2)c1",
    "TGI": "28.6 µM"
  },
  {
    "molecule": "COC(=O)C1(C)OC(C)=NC1(C(=O)OC)C(=O)OC (centres undefined)",
    "TGI": "> 100 µM"
  },
  {
    "molecule": "O=C(Nc1ccc(S(=O)(=O)Nc2ncccn2)cc1)c1c2ccccc2nc2ccccc12",
    "TGI": "> 100 µM"
  }
]

Ask: Look up TGI of CCOC(=O)NC(=S)NC(C)c1ccccc1 (centres undefined) and report it.
Result: > 100 µM

Ask: Look up TGI of CC/C=C/C(/C=C/C[C@]1(CC)C[C@H](CC)[C@H](CC(=O)O)OO1)CC (some centres undefined) and report it.
Result: 15.4 µM

Ask: Look up TGI of c1ccc(CSC(SCc2ccccc2)c2ccc3c(c2)OCO3)cc1 and report it.
Result: > 10 µM
